Molecular target: Serine/threonine-protein kinase PLK1 (Homo sapiens)
Experiment: qHTS for Inhibitors of PLK1-PDB (polo-like kinase 1 - polo-box domain): Primary Screen; also: nearly all actives have a fitted effect of over 65% in size; also: potency is read from the fitted curve at half-maximal effect
Settings: Plk1 PBD binding of FITC phosphopeptide, fluorescence polarization
Text: The polo-like kinase 1 (Plk1) is a member of a conserved subfamily of serine / threonine protein kinases that plays a pivotal roles in cell proliferation. It has a C-terminal non-catalytic region called the polo-box domain (PBD) that plays a crucial role in the subcellular localization of the Plk1. […] This project employed a fluorescence polarization (FP) assay using a FITC-conjugated phospho-9-mer (p-9-mer) peptide and purified human Plk1 PBD protein. […]
The campaign covered roughly 360,000 compounds. About 10,000 (2.8%) were called active. Roughly 4% stayed inconclusive and do not appear here. The entries come from a sample that favours actives as a whole.
PROPERTY NAME: Potency

// below: answered compounds
Name the recorded Potency for CCN(CC)S(=O)(=O)c1cccc(-c2n[nH]c(=S)n2/N=C/c2ccc(C(=O)OC)cc2)c1 .
10.6 µM (active)

Name the recorded Potency for CC1(C(=O)NS(=O)(=O)c2ccc3ccccc3c2)CCN1C(=O)C1(c2ccc(Cl)cc2)CCC1 (centres undefined) .
42.3 µM (active)

Name the recorded Potency for CC(=O)N(C1=C(Cl)C(=O)c2ccccc2C1=O)c1ccc(C(=O)O)cc1 .
2.99 µM (active)

Name the recorded Potency for Cc1cc(C)n2nc(SCC(=O)NC(=O)NCc3ccco3)nc2n1 .
16.8 µM (active)

Name the recorded Potency for N#Cc1c(-c2ccccc2)cc(-c2ccccc2)nc1SCC(=O)O .
21.2 µM (active)

---
Name the recorded Potency for COc1ccc(-c2cc(C(=O)N3CCN(Cc4ccc5c(c4)OCO5)CC3)on2)cc1OC .
5.97 µM (active)

Name the recorded Potency for Cc1ccc2[nH]cc(CCCN3C(=O)c4ccccc4C3=O)c2c1 .
29.9 µM (active)

Name the recorded Potency for Cc1cccc(CS(=O)(=O)c2ncc(Cl)c(C(=O)Nc3ccc(F)cc3)n2)c1 .
16.8 µM (active)

Name the recorded Potency for Cc1c(NC(=O)CSc2cccc3cccnc23)c(=O)n(-c2ccccc2)n1C .
16.8 µM (active)

###

Target: Serine/threonine-protein kinase PLK1 (Homo sapiens)
Test: qHTS for Inhibitors of PLK1-PDB (polo-like kinase 1 - polo-box domain): Primary Screen; also: nearly all actives have a fitted effect of over 65% in size; as to max response, negative = inhibition: series mostly up to about 57 µM; % is scaled to controls: 0 for no effect and ±100 for the full control effect
Conditions: Plk1 PBD binding of FITC phosphopeptide, fluorescence polarization
Out of some 360,000 compounds screened, about 10,000 (2.8%) were called active. Another 4% or so got no clear call; they are omitted. What follows is part of a selection rich in actives, with near analogues and random picks from the rest.
max response, negative = inhibition by entry:
Give the quantity in %, number only.

// below: answered compounds
Short answer please: max response, negative = inhibition, Serine/threonine-protein kinase PLK1 (Homo sapiens), entry CN(C)c1ccnc(Nc2ccc(F)cc2)c1C#N
-0.535

Short answer please: max response, negative = inhibition, Serine/threonine-protein kinase PLK1 (Homo sapiens), entry O=C1NC(O)CCN1C1CC(O)C(CO)O1 (configuration not stated)
-1.57

Short answer please: max response, negative = inhibition, Serine/threonine-protein kinase PLK1 (Homo sapiens), entry Cc1sc2nc(-c3ccccc3F)oc(=O)c2c1C
-3.03

---
Short answer please: max response, negative = inhibition, Serine/threonine-protein kinase PLK1 (Homo sapiens), entry O=C(CC(Cc1ccccc1)C(=O)O)NCCc1ccc2c(c1)OCO2 (configuration not stated)
-0.693
